target: MAP kinase-activated protein kinase 5 (Homo sapiens) (UniProt Q8IW41); conditions: at 0.1 µM;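 further: reported values are mean PRAK inhibition figures from the GSK PKIS screen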
Sequence (Q8IW41 whole entry): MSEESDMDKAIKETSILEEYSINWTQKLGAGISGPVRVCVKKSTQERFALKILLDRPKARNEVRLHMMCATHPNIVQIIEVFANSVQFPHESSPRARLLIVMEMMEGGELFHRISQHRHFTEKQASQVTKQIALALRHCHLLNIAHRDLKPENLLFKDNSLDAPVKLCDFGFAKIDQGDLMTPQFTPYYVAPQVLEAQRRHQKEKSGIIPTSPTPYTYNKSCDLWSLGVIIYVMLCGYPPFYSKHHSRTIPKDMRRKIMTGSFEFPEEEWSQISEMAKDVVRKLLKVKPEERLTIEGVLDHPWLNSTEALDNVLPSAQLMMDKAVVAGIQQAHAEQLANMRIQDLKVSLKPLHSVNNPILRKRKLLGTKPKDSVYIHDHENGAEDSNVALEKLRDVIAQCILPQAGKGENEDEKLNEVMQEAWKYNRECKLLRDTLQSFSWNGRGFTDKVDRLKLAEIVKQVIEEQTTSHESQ
measuredProperty: inhibition (%)

[
  {
    "molecule": "Cc1nnc(-c2ccc(C)c(-c3ccc(C(=O)NCc4ccc(Cl)cc4)cc3)c2)o1",
    "numericReadout": 1.56
  },
  {
    "molecule": "NS(=O)(=O)c1ccc(Nc2cc(-c3ccc(O)c(F)c3)n[nH]2)cc1",
    "numericReadout": -1.43
  },
  {
    "molecule": "O=C1Nc2ccccc2/C1=C/Nc1ccc(-n2cncn2)cc1",
    "numericReadout": 1.63
  },
  {
    "molecule": "CNC(=O)c1cncc(/C=C/c2c(C)cccc2C)c1",
    "numericReadout": -0.02
  },
  {
    "molecule": "C[C@@H](Oc1cc(-n2cnc3ccc(OC4CCN(C)CC4)cc32)sc1C(N)=O)c1ccccc1Cl",
    "numericReadout": 1.31
  },
  {
    "molecule": "O=C(Nc1n[nH]c2nc(-c3ccco3)ccc12)C1CC1",
    "numericReadout": -0.19
  },
  {
    "molecule": "COc1ccc(C2=C(N3CCc4ccccc43)C(=O)NC2=O)cc1",
    "numericReadout": 1.93
  },
  {
    "molecule": "NS(=O)(=O)c1ccc(N/N=C2\\C(=O)Nc3ccc(C(=O)NCCCn4ccnc4)cc32)cc1",
    "numericReadout": 1.4
  },
  {
    "molecule": "COc1cc(C)c(N(C)C(=O)CN(C)C)cc1Nc1nc(Nc2cccc(F)c2C(N)=O)c2cc[nH]c2n1",
    "numericReadout": 0.02
  },
  {
    "molecule": "Cc1ccc(C(=O)NC2CCC2)cc1-c1ccc(C(=O)NCC2CC2)cc1",
    "numericReadout": 0.63
  },
  {
    "molecule": "Fc1ccc(-c2ncn(C3CCNCC3)c2-c2ccnc(Oc3ccc(F)c(F)c3)n2)cc1",
    "numericReadout": 1.47
  },
  {
    "molecule": "O=C1NC(=O)C(c2cccc(Cl)c2)=C1Nc1ccc(Cl)c(C(=O)O)c1",
    "numericReadout": 1.73
  },
  {
    "molecule": "COc1cc2ncn(-c3cc(OCc4ccccc4C(F)(F)F)c(C(C)=O)s3)c2cc1OC",
    "numericReadout": 1.07
  },
  {
    "molecule": "COC(=O)Nc1nc2ccc(Sc3ccc(NC(=O)Nc4cc(C(F)(F)F)ccc4F)cc3)cc2[nH]1",
    "numericReadout": 0.03
  },
  {
    "molecule": "NC(=O)c1cc(-c2ccc(F)cc2)cc(-c2ccncc2)c1N",
    "numericReadout": 1.11
  },
  {
    "molecule": "COc1cc(Nc2ncc3c(C)nc(-c4cccc(C(F)(F)F)c4)n3n2)cc(OC)c1OC",
    "numericReadout": 1.19
  },
  {
    "molecule": "CCS(=O)(=O)c1ccc(OC)c(Nc2ncc(-c3cccc(-c4ccccc4F)c3)o2)c1",
    "numericReadout": 0.06
  },
  {
    "molecule": "COc1ccc2cc(-c3c(-c4ccncc4)nc(-c4ccc(S(C)(=O)=O)cc4C)n3C)ccc2c1",
    "numericReadout": 1.38
  },
  {
    "molecule": "NCc1ccc(-n2c(-c3nonc3N)nc3cnccc32)cc1",
    "numericReadout": 1.5
  },
  {
    "molecule": "CCc1nccc2c1nc(-c1nonc1N)n2CC",
    "numericReadout": -0.45
  },
  {
    "molecule": "c1ccc(-c2n[nH]cc2-c2ccnc(-c3ccc(OCCN4CCOCC4)cc3)c2)nc1",
    "numericReadout": -1.14
  },
  {
    "molecule": "N#Cc1ccc(Oc2nccc(-c3c(-c4ccc(F)cc4)ncn3C3CCNCC3)n2)cc1",
    "numericReadout": 1.34
  },
  {
    "molecule": "COc1cc(N2CCN(C(C)C)CC2)ccc1Nc1nc(Nc2ccc(F)cc2C(=O)NC[C@@H](O)CO)c2cc[nH]c2n1",
    "numericReadout": 2.43
  },
  {
    "molecule": "O=C(Nc1n[nH]c2cc(-c3cc(F)ccc3F)ccc12)C1CC1",
    "numericReadout": 0.74
  },
  {
    "molecule": "C#Cc1cccc(Nc2ncnc3ccc(OCCCCNCCS(C)(=O)=O)cc23)c1",
    "numericReadout": 2.33
  },
  {
    "molecule": "CN(C)CCCNc1nccc(-c2c(-c3ccc(F)cc3)nn3cc(C(F)(F)F)ccc23)n1",
    "numericReadout": 0.44
  },
  {
    "molecule": "Fc1ccc(-c2nc3n(c2-c2ccncc2)CCS3)cc1",
    "numericReadout": 1.2
  },
  {
    "molecule": "C/C(Nc1ccc(S(N)(=O)=O)cc1)=C1/C(=O)Nc2ccccc21",
    "numericReadout": -0.26
  },
  {
    "molecule": "Nc1nccc(-c2c(-c3ccc(F)cc3)ncn2C2CCC(O)CC2)n1 (stereo not given)",
    "numericReadout": -0.92
  },
  {
    "molecule": "O=C(Nc1n[nH]c2nc(-c3ccc(O)cc3)c(Br)cc12)C1CC1",
    "numericReadout": 2.42
  }
]

Cited source: ChEMBL document CHEMBL1961873
